System: Toxoplasma gondii
Test: Antiparasitic activity against Toxoplasma gondii infected in HFF after 24 hrs by [3H]uracil incorporation assay
Format: functional
Measured Quantity: MIC50

Nc1ccc(/C=C/C(=O)NCc2ccccc2N)cn1    > 6 µM
CC(C)(C)C(=O)Nc1cc(Cl)ccc1Oc1ccccc1    > 6 µM
Nc1ccc(Nc2ccccc2)c(N)c1    > 6 µM
Oc1cc(Cl)ccc1Oc1ccc(Cl)cc1Cl [TRICLOSAN]    5 µM
CCCc1ccc(Oc2cccc(B(O)O)c2)c(O)c1    5 µM
COc1ccc(NC(=O)/C=C/c2ccc(N)nc2)cc1    > 6 µM
CCCc1cc(O)c(Oc2ccc(C#N)cc2)c(O)c1    > 6 µM
CCCc1cc(O)c(Oc2ccc(C#N)cc2Cl)c(OC)c1    > 6 µM
Oc1cc(Cl)ccc1Oc1ccccc1    5 µM
CCCc1ccc(Oc2cccc(CCO)c2)c(O)c1    > 6 µM
CN(Cc1cc2ccccc2n1C)C(=O)/C=C/c1ccc(N)nc1    > 6 µM
CCCc1ccc(Oc2cccc(Cl)c2)c(O)c1    > 6 µM
Oc1ccc(Oc2ccccc2)c(O)c1    > 6 µM
Oc1ccc(Oc2ccc(Cl)cc2O)cc1    > 6 µM
Oc1cc(Cl)ccc1Oc1cnccn1    > 6 µM
CC(=O)Nc1ccc(/C=C/C(=O)N(C)Cc2cc3ccccc3n2C)cn1    > 6 µM
